System: IL-4
Assay explanation: IL-4 levels in sera upon i.v. glycolipid administration to BALB/c mice (ELISA)
Assay type: in vivo
Set-up: unit not given here
Stated conditions: hour 2
Measured IL-4 level, average accompanies every entry in the list below.
Provide a numeric answer; units are not to be included.

Some solved cases for reference:
>>> value_measured("CCCCCCCCCCCCCC[C@@H](O)[C@@H](O)[C@H](CC[C@H]1O[C@H](CO)[C@H](O)[C@H](O)[C@H]1O)NC(=O)CCCCCCCCCCCCCCCCCCCOCCCCC [A-5]")
156
>>> value_measured("CCCCCCCCCCCCCCCCC/C=C/CCCCCCCCC(=O)N[C@@H](CC[C@H]1O[C@H](CO)[C@H](O)[C@H](O)[C@H]1O)[C@H](O)[C@H](O)CCCCCCCCCCCCCC [A-3]")
307.5
>>> value_measured("CCCCCCCCCCCCCC[C@@H](O)[C@@H](O)[C@H](CC[C@H]1O[C@H](CO)[C@H](O)[C@H](O)[C@H]1O)NC(=O)CCCCCCCCCCCCCCCCCCCOCCCCCC [A-4]")
207
>>> value_measured("CCCCCCCCCCCCCCCCCCCCCCCCCC(=O)N[C@@H](CO[C@H]1O[C@H](CO)[C@H](O)[C@H](O)[C@H]1O)[C@H](O)[C@H](O)CCCCCCCCCCCCCC [KRN, reference compound]")
1690
>>> value_measured("CCCCCCCCCCCCCCCCCC/C=C/CCCCCCCCC(=O)N[C@@H](/C=C/[C@H]1O[C@H](CO)[C@H](O)[C@H](O)[C@H]1O)[C@H](O)[C@H](O)CCCCCCCCCCCCCC [A-1]")
431.5

State the recorded IL-4 level, average for this entry: CCCCCCCCCCCCCCCCCCCCCCCCCCCCC(=O)N[C@@H](/C=C/[C@H]1O[C@H](CO)[C@H](O)[C@H](O)[C@H]1O)[C@H](O)[C@H](O)CCCCCCCCCCCCCC [A-2] 330

Field entry: CCCCCCCCCCCCCCCCCCCCCCCCCC(=O)N[C@@H](CC[C@H]1O[C@H](CO)[C@H](O)[C@H](O)[C@H]1O)[C@H](O)[C@H](O)CCCCCCCCCCCCCC [CRONY, reference compound] 262.5

* * *

Tested on: IFN-γ
Assay explanation: IFN-γ levels in sera upon i.v. glycolipid administration to BALB/c mice (ELISA)
Type: in vivo
Design: unit not given here
Stated conditions: BALB/c, serum, hour 2
Property measured: IFN-γ levels, test 1
Provide a numeric answer; units are not to be included.

>>> value_measured("CCCCCCCCCCCCCCCCCCCCCCCCCC(=O)N[C@@H](CC[C@H]1O[C@H](CO)[C@H](O)[C@H](O)[C@H]1O)[C@H](O)[C@H](O)CCCCCCCCCCCCCC [CRONY, reference compound]")
122
>>> value_measured("CCCCCCCCCCCCCCCCCCCCCCCCCCCCC(=O)N[C@@H](/C=C/[C@H]1O[C@H](CO)[C@H](O)[C@H](O)[C@H]1O)[C@H](O)[C@H](O)CCCCCCCCCCCCCC")
197
>>> value_measured("CCCCCCCCCCCCCCCCC/C=C/CCCCCCCCC(=O)N[C@@H](CC[C@H]1O[C@H](CO)[C@H](O)[C@H](O)[C@H]1O)[C@H](O)[C@H](O)CCCCCCCCCCCCCC")
137

With those in mind, consider the next molecule.
Look up IFN-γ levels, test 1 with IFN-γ for this molecule: CCCCCCCCCCCCCCCCCCCCCCCCCC(=O)N[C@@H](CO[C@H]1O[C@H](CO)[C@H](O)[C@H](O)[C@H]1O)[C@H](O)[C@H](O)CCCCCCCCCCCCCC [KRN, reference compound] 841

* * *

System: IL-12
Assay explanation: IL-12 levels in sera upon i.v. glycolipid administration to C57BL/6 mice (ELISA)
Format: in vivo
Parameters: unit not given here
Stated conditions: C57BL/6, serum, hour 48
Measured IL-12 levels, average accompanies every entry in the list below.
Provide a numeric answer; units are not to be included.

>>> value_measured("CCCCCCCCCCCCCC[C@@H](O)[C@@H](O)[C@H](CC[C@H]1O[C@H](CO)[C@H](O)[C@H](O)[C@H]1O)NC(=O)CCCCCCCCCCCCCCCCCCCOCCCCC")
58
>>> value_measured("CCCCCCCCCCCCCCCCCCCCCCCCCC(=O)N[C@@H](CO[C@H]1O[C@H](CO)[C@H](O)[C@H](O)[C@H]1O)[C@H](O)[C@H](O)CCCCCCCCCCCCCC [KRN, reference compound]")
61.5
>>> value_measured("CCCCCCCCCCCCCCCCC/C=C/CCCCCCCCC(=O)N[C@@H](CC[C@H]1O[C@H](CO)[C@H](O)[C@H](O)[C@H]1O)[C@H](O)[C@H](O)CCCCCCCCCCCCCC")
99
>>> value_measured("CCCCCCCCCCCCCCCCCC/C=C/CCCCCCCCC(=O)N[C@@H](/C=C/[C@H]1O[C@H](CO)[C@H](O)[C@H](O)[C@H]1O)[C@H](O)[C@H](O)CCCCCCCCCCCCCC")
0
>>> value_measured("CCCCCCCCCCCCCCCCCCCCCCCCCC(=O)N[C@@H](CC[C@H]1O[C@H](CO)[C@H](O)[C@H](O)[C@H]1O)[C@H](O)[C@H](O)CCCCCCCCCCCCCC [CRONY, reference compound]")
0

State the recorded IL-12 levels, average for this entry: CCCCCCCCCCCCCC[C@@H](O)[C@@H](O)[C@H](CC[C@H]1O[C@H](CO)[C@H](O)[C@H](O)[C@H]1O)NC(=O)CCCCCCCCCCCCCCCCCCCOCCCCCC 0

Field entry: CCCCCCCCCCCCCCCCCCCCCCCCCCCCC(=O)N[C@@H](/C=C/[C@H]1O[C@H](CO)[C@H](O)[C@H](O)[C@H]1O)[C@H](O)[C@H](O)CCCCCCCCCCCCCC 250

* * *

Measured IL-12 levels, Total accompanies every entry in the list below.
Test system: IL-12
Assay explanation: IL-12 levels in sera upon i.v. glycolipid administration to C57BL/6 mice (ELISA)
Format: in vivo
Design: unit not given here
Stated conditions: C57BL/6, serum, total over hours 0-72

>>> value_measured("CCCCCCCCCCCCCCCCC/C=C/CCCCCCCCC(=O)N[C@@H](CC[C@H]1O[C@H](CO)[C@H](O)[C@H](O)[C@H]1O)[C@H](O)[C@H](O)CCCCCCCCCCCCCC")
1400

Look up IL-12 levels, Total with IL-12 for this compound: CCCCCCCCCCCCCCCCCCCCCCCCCCCCC(=O)N[C@@H](/C=C/[C@H]1O[C@H](CO)[C@H](O)[C@H](O)[C@H]1O)[C@H](O)[C@H](O)CCCCCCCCCCCCCC 3969

Field entry: CCCCCCCCCCCCCC[C@@H](O)[C@@H](O)[C@H](CC[C@H]1O[C@H](CO)[C@H](O)[C@H](O)[C@H]1O)NC(=O)CCCCCCCCCCCCCCCCCCCOCCCCC 2182

* * *

System: IL-12
Assay explanation: IL-12 levels in sera upon i.v. glycolipid administration to C57BL/6 mice (ELISA)
Format: in vivo
Parameters: unit not given here
Stated conditions: C57BL/6, serum, hour 2
Experimental: Five- to six-week-old female C57BL/6 mice and BALB/c mice were purchased from Taconic. Each glycolipid was stored at 1 mg/ml in 100% DMSO. […] At indicated time points, sera were collected from each animal, and concentrations of IFN-γ, IL-4, and IL-12 in the sera were evaluated by enzyme-linked immunosorbent assay (ELISA). Serum concentrations of IFN-γ, IL-4, and IL-12 were evaluated using an ELISA kit (eBioscience, San Diego, Calif.). […]
Each entry gets -1 if its IL-12 levels, test 2 stays under 100, and 1 if its IL-12 levels, test 2 is 100 or above.

For orientation, consider the following solved cases.
>>> label("CCCCCCCCCCCCCCCCCCCCCCCCCC(=O)N[C@@H](CO[C@H]1O[C@H](CO)[C@H](O)[C@H](O)[C@H]1O)[C@H](O)[C@H](O)CCCCCCCCCCCCCC [KRN, reference compound]")
-1
>>> label("CCCCCCCCCCCCCCCCCCCCCCCCCC(=O)N[C@@H](CC[C@H]1O[C@H](CO)[C@H](O)[C@H](O)[C@H]1O)[C@H](O)[C@H](O)CCCCCCCCCCCCCC [CRONY, reference compound]")
1
>>> label("CCCCCCCCCCCCCCCCCCCCCCCCCCCCC(=O)N[C@@H](/C=C/[C@H]1O[C@H](CO)[C@H](O)[C@H](O)[C@H]1O)[C@H](O)[C@H](O)CCCCCCCCCCCCCC [A-2]")
1
>>> label("CCCCCCCCCCCCCC[C@@H](O)[C@@H](O)[C@H](CC[C@H]1O[C@H](CO)[C@H](O)[C@H](O)[C@H]1O)NC(=O)CCCCCCCCCCCCCCCCCCCOCCCCC [A-5]")
1
>>> label("CCCCCCCCCCCCCCCCC/C=C/CCCCCCCCC(=O)N[C@@H](CC[C@H]1O[C@H](CO)[C@H](O)[C@H](O)[C@H]1O)[C@H](O)[C@H](O)CCCCCCCCCCCCCC [A-3]")
-1

// inclusive: IL-12 levels, test 2 at least 100? input: CCCCCCCCCCCCCCCCCC/C=C/CCCCCCCCC(=O)N[C@@H](/C=C/[C@H]1O[C@H](CO)[C@H](O)[C@H](O)[C@H]1O)[C@H](O)[C@H](O)CCCCCCCCCCCCCC [A-1] -1

Field entry: CCCCCCCCCCCCCC[C@@H](O)[C@@H](O)[C@H](CC[C@H]1O[C@H](CO)[C@H](O)[C@H](O)[C@H]1O)NC(=O)CCCCCCCCCCCCCCCCCCCOCCCCCC [A-4] 1
